Test system: HEK-293T
Assay: Multiplex assay against HEK293T;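 also: share of the cells with healthy nuclei that show this phenotype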
Format: toxicity, cell-based
Settings: human, 24 h, 1 µM, compound concentration 1 uM, replicate 1
Recorded Population Tubulin-Different-Phenotype (%), one value per entry.
parameter: Population Tubulin-Different-Phenotype (%)

INSERT INTO measurements (compound, reported_result) VALUES
  ('Cc1csc2c(N[C@@H](C)CN3CCN(S(=O)(=O)c4ccc(Cl)c(Cl)c4)CC3)ncnc12', 90),
  ('CN(C)C(=O)N[C@H]1CC[C@H](CCN2CCN(c3cccc(Cl)c3Cl)CC2)CC1.Cl [CARIPRAZINE HYDROCHLORIDE]', 55),
  ('CN(C)CC#Cc1ccc(OCCCc2sc(N3CCc4cccc(C(=O)Nc5nc6ccccc6s5)c4C3)nc2C(=O)O)c(F)c1', 37),
  ('CN1CCN(c2ccc(OC(F)(F)F)c(Nc3ncc4c(n3)-c3c(c(C(N)=O)nn3CCO)CC4)c2)CC1', 67),
  ('C=CC(=O)Nc1ccc2ncnc(Nc3ccc(OCc4cccc(F)c4)c(Cl)c3)c2c1.Cc1ccc(S(=O)(=O)O)cc1', 39),
  ('CNc1nc(NCc2ccc(NS(C)(=O)=O)cc2Cl)cc(-c2ccccn2)n1', 25),
  ('C=CC(=O)Nc1cc2c(Nc3ccc(F)c(Cl)c3)ncnc2cc1OCCCN1CCOCC1.Cl.Cl [CANERTINIB DIHYDROCHLORIDE]', 56),
  ('COc1cc(-n2cnc3cc(-c4ccc(Cl)cc4)sc3c2=O)ccc1OCCN1CCCC1', 86),
  ('CN1CCN(CCOc2cc(OC3CCOCC3)c3c(Nc4c(Cl)ccc5c4OCO5)ncnc3c2)CC1', 65),
  ('C[C@@]1(C(=O)Nc2ccc(F)nc2)CCCN1c1nc(Nc2cc(C3CC3)n[nH]2)c2cccn2n1', 79),
  ('CC(C)NCC(O)COc1ccc(CCOCC2CC2)cc1.Cl (stereo not drawn) [BETAXOLOL HYDROCHLORIDE]', 37),
  ('CC(C)(O)CNc1ncc(-c2ccnc(Nc3ccnc(Cl)c3)n2)c(CC2CC2)n1', 89),
  ('CN(C)C(=O)/C(C#N)=C/c1ccc(-c2nc3cnc4[nH]ccc4c3n2C2CCCCC2)o1', 40),
  ('Cn1cc(-c2[nH]c3cc(NC(=O)[C@H](N)C4CCCCC4)cc4c3c2C=NNC4=O)cn1', 68),
  ('OC1(c2ccc(Cl)cc2)CCN(Cc2c[nH]c3ccccc23)CC1', 42),
  ('Cl.N#Cc1ccc2[nH]cc(CCCCN3CCN(c4ccc5oc(C(N)=O)cc5c4)CC3)c2c1 [VILAZODONE HYDROCHLORIDE]', 71),
  ('COc1ncc(-c2ccc3nccc(-c4ccnnc4)c3c2)cc1NS(=O)(=O)c1ccc(F)cc1F', 50),
  ('Cc1c(-c2ccc(O)cc2)n(Cc2ccc(OCCN3CCCCCC3)cc2)c2ccc(O)cc12', 54),
  ('CN1CCC[C@@H]1CCO[C@](C)(c1ccccc1)c1ccc(Cl)cc1.O=C(O)/C=C/C(=O)O [CLEMASTINE FUMARATE]', 63),
  ('Cc1[nH]c(/C=C2\C(=O)Nc3ccc(S(=O)(=O)N(C)c4cccc(Cl)c4)cc32)c(C)c1C(=O)N1CCN(C)CC1', 86),
  ('Cc1cc(C)cc(-c2cnc3cc(Cl)c(-c4cccc(O)c4)cc3c2OCCCN)c1', 90),
  ('Cc1nc(-c2cn3c(n2)-c2ccc(-c4cnn(C(C)(C)C(N)=O)c4)cc2OCC3)n(C(C)C)n1', 18),
  ('Cc1nc(-c2ccc(-c3ccc(C(=O)N4CCc5cc6c(cc54)C4(CCN(C)CC4)CO6)cc3)c(C)c2)no1', 63),
  ('c1cn2cc(-c3ccc4cn[nH]c4c3)nc(Nc3ccc(N4CCOCC4)cc3)c2n1', 72),
  ('O=C1NCN(c2ccccc2)C12CCN(CCCOc1ccc(F)cc1)CC2 [SPIRAMIDE]', 34),
  ('C=CC(=O)Nc1cccc(C(=O)Nc2ccc(Nc3cc(-c4[nH]c(SC)nc4C)ccn3)cc2)c1', 48),
  ('NC(=O)Nc1cc(-c2cccc(F)c2)sc1C(=O)N[C@H]1CCCNC1', 14),
  ('CCN(CC)CCCCNc1ncc2cc(-c3cc(OC)cc(OC)c3)c(NC(=O)NC(C)(C)C)nc2n1', 26),
  ('C[C@@H](NCCCc1cccc(C(F)(F)F)c1)c1cccc2ccccc12.Cl [CINACALCET HYDROCHLORIDE]', 63),
  ('Cc1nc(Nc2n[nH]c3c2CN(C(=O)N[C@H](CN(C)C)c2ccccc2)C3(C)C)c2sccc2n1', 6),
  ('COc1cccc([C@@H](C)NCCCc2ccccc2Cl)c1.Cl [TECALCET HYDROCHLORIDE]', 52),
  ('CC[C@H](C)C(=O)O[C@H]1C[C@@H](C)C=C2C=C[C@H](C)[C@H](CC[C@@H]3C[C@@H](O)CC(=O)O3)[C@H]21', 32),
  ('CN1CCCC(n2nc(Cc3ccc(Cl)cc3)c3ccccc3c2=O)CC1.Cl (stereo not drawn) [AZELASTINE HYDROCHLORIDE]', 83);
